Measured EC50, listed per entry.
# Tested on: Human RSV-A (“Long” strain)
# Protocol Text: RSV-A assay (CPE, ATPlite readout in Hep-2 cells)
# Type: cell-based
# Test Context: human respiratory syncytial virus, HEp-2, 120 h, read-out: Human RSV-A (“Long” strain) EC50
Test Readout: EC50

>>> test_value("COc1cc(C(=O)NC[C@](C)(O)c2cc3c(c(-c4ccc(F)cc4)n2)OC[C@@]3(NC(=N)NC#N)C(F)(F)F)ccc1OC1CC1 [Example 21]")
"< 200 nM"
>>> test_value("COC(=O)N[C@@]1(C(F)(F)F)COc2c1cc([C@@](C)(O)CNC(=O)c1ccc(OC3CC3)c(OC)c1)nc2-c1ccc(F)cc1 [Example 15]")
"< 200 nM"

###

# System: Human RSV-A (“Long” strain)
# Protocol Text: RSV-A assay (CPE, ATPlite readout in Hep-2 cells)
# Assay type: cell-based
# Test Context: human respiratory syncytial virus, 120 h; Hep-2 cells, MOI 0.1, 5-day incubation, ATPlite; read-out: Human RSV-A (“Long” strain) EC50
pEC50: −log10 of the molar value.
pEC50 listing for selected compounds.
Test Readout: pEC50

>>> test_value("COc1cc(C(=O)NC[C@@](O)(c2cc3c(c(-c4ccc(F)cc4)n2)OC[C@]3(N)C(F)(F)F)C(F)(F)F)ccc1OCCO")
"< 6.70"
>>> test_value("COc1cc(C(=O)NC[C@](O)(c2cc3c(c(-c4ccc(F)cc4)n2)OC[C@@]3(N)C(F)(F)F)C(F)(F)F)cc2cccnc12")
"> 6.70"
>>> test_value("N[C@@]1(C(F)(F)F)COc2c1cc([C@@](O)(CNC(=O)c1cc(OC3CC3)c3nc(Cl)ccc3c1)C1CC1)nc2-c1ccc(F)cc1 [Example 59d]")
"> 6.70"
>>> test_value("COc1ccc(C(=O)NC[C@](O)(c2cc3c(c(-c4ccc(F)cc4)n2)OC[C@@]3(N)C(F)(F)F)C(F)(F)F)cc1OC")
"< 6.70"
>>> test_value("CC(C)(C)S(=O)(=O)N[C@@]1(C(F)(F)F)COc2c1cc([C@@](C)(O)CNC(=O)c1cc(OC3CC3)c3ncccc3c1)nc2-c1ccc(F)cc1")
"< 6.70"
>>> test_value("COc1cc(C(=O)NC[C@@](O)(c2cc3c(c(-c4ccc(F)cc4)n2)OC[C@]3(N)C(F)(F)F)C(F)(F)F)ccc1OC1CC1")
"< 6.70"

###

# Test system: Human RSV-A (“Long” strain)
# Protocol Text: RSV-A assay (CPE, ATPlite readout in Hep-2 cells)
# Assay type: cell-based
# Test Context: human respiratory syncytial virus, 120 h; Hep-2 cells, MOI 0.1, 5-day incubation, ATPlite; read-out: Human RSV-A (“Long” strain) EC50
pEC50: −log10 of the molar value.
Test Readout: pEC50

>>> test_value("COc1cc(C(=O)NC[C@](O)(c2cc3c(c(-c4ccc(F)cc4)n2)OC[C@@]3(N)C(F)(F)F)C(F)(F)F)ccc1OCCO")
"< 6.70"
>>> test_value("Cc1ccc2cc(C(=O)NC[C@](O)(c3cc4c(c(-c5ccc(F)cc5)n3)OC[C@@]4(N)C(F)(F)F)C3CC3)cc(OC3CC3)c2n1 [Example 59e]")
"> 6.70"
>>> test_value("COC[C@](O)(CNC(=O)c1ccc(OC2CC2)c(OC)c1)c1cc2c(c(-c3ccc(F)cc3)n1)OC[C@@]2(N)C(F)(F)F")
"> 6.70"
>>> test_value("N[C@@]1(C(F)(F)F)COc2c1cc([C@@](O)(CNC(=O)c1ccc(OC3CC3)c(OC3CC3)c1)C1CC1)nc2-c1ccc(F)cc1")
"> 6.70"
>>> test_value("C[C@](O)(CNC(=O)c1ccc(OC2CC2)c(-c2cccnc2)c1)c1cc2c(c(-c3ccc(F)cc3)n1)OC[C@@]2(N)C(F)(F)F")
"> 6.70"
>>> test_value("COc1cc(C(=O)NC[C@@](O)(CO)c2cc3c(c(-c4ccc(F)cc4)n2)OC[C@@]3(N)C(F)(F)F)ccc1OC1CC1")
"> 6.70"

###

# System: Human RSV-A (“Long” strain)
# Protocol Text: RSV-A assay (CPE, ATPlite readout in Hep-2 cells)
# Assay type: cell-based
# Test Context: human respiratory syncytial virus, 120 h; Hep-2 cells, MOI 0.1, 5-day incubation, ATPlite; read-out: Human RSV-A (“Long” strain) EC50
Test Readout: EC50

>>> test_value("COc1cc(C(=O)NC[C@](O)(c2cc3c(c(-c4ccc(F)cc4)n2)OC[C@@]3(N)C(F)(F)F)C2CC2)cc2sc(N)nc12 [Example 53]")
"< 200 nM"
>>> test_value("COc1cc(C(=O)NC[C@](O)(c2cc3c(c(-c4ccc(F)cc4)n2)OC[C@@]3(N)C(F)(F)F)C2COC2)ccc1OC1CC1 [Example 57]")
"> 200 nM"
>>> test_value("COc1cc(C(=O)NC[C@](O)(c2cc3c(c(-c4ccc(F)cc4)n2)OC[C@]3(N)C(F)(F)F)C(F)(F)F)cc2cccnc12 [Example 6]")
"< 200 nM"
>>> test_value("N[C@@]1(C(F)(F)F)COc2c1cc([C@@](O)(CNC(=O)c1ccc(OC3CC3)c(OC3CC3)c1)C1CC1)nc2-c1ccc(F)c(F)c1 [Example 27]")
"< 200 nM"
>>> test_value("COc1cc(C(=O)NC[C@](C)(O)c2cc3c(c(-c4ccc(F)c(Cl)c4)n2)OC[C@@]3(N)C(F)(F)F)ccc1OC1CC1 [Example 24]")
"< 200 nM"
>>> test_value("N[C@@]1(C(F)(F)F)COc2c1cc([C@@](O)(CNC(=O)c1cc(OC3CC3)c3ncccc3c1)C1CC1)nc2-c1ccc(F)cc1 [Example 11]")
"< 200 nM"

###

# Tested on: Human RSV-A (“Long” strain)
# Protocol Text: RSV-A assay (CPE, ATPlite readout in Hep-2 cells)
# Format: cell-based
# Test Context: human respiratory syncytial virus, 120 h; Hep-2 cells, MOI 0.1, 5-day incubation, ATPlite; read-out: Human RSV-A (“Long” strain) EC50
Listing: EC50 of selected molecules
Test Readout: EC50

>>> test_value("N[C@@]1(C(F)(F)F)COc2c1cc([C@@](O)(CNC(=O)c1cc(OC3CC3)c3c(ccc[n+]3[O-])c1)C1CC1)nc2-c1ccc(F)cc1 [Example 59b]")
"> 200 nM"
>>> test_value("COc1cc(C(=O)NC[C@](O)(c2cc3c(c(-c4ccc(F)cc4)n2)OC[C@]3(N)C(F)(F)F)C(F)(F)F)ccc1OC1CC1 [Example 3]")
"< 200 nM"
>>> test_value("COc1ccc2nc(C(=O)NC[C@](O)(c3cc4c(c(-c5ccc(F)cc5)n3)OC[C@@]4(N)C(F)(F)F)C(F)(F)F)cc(OC)c2c1 [Example 43]")
"> 200 nM"

###

# pEC50 annotations
# Test system: Human RSV-A (“Long” strain)
# Protocol Text: RSV-A assay (CPE, ATPlite readout in Hep-2 cells)
# Assay type: cell-based
# Test Context: human respiratory syncytial virus, 120 h; Hep-2 cells, MOI 0.1, 5-day incubation, ATPlite; read-out: Human RSV-A (“Long” strain) EC50
pEC50: −log10 of the molar value.
Test Readout: pEC50

>>> test_value("COc1cc(C(=O)NC[C@](O)(c2cc3c(c(-c4ccc(F)cc4)n2)OC[C@@]3(N)C(F)(F)F)C2CC2)cc2cn(C)nc12 [Example 55]")
"> 6.70"
>>> test_value("COc1cc(C(=O)NC[C@](O)(c2cc3c(c(-c4ccc(F)c(F)c4)n2)OC[C@@]3(N)C(F)(F)F)C2CC2)ccc1OC1CC1 [Example 23]")
"> 6.70"
>>> test_value("Nc1nc2c(F)cc(C(=O)NC[C@](O)(c3cc4c(c(-c5ccc(F)cc5)n3)OC[C@@]4(N)C(F)(F)F)C3CC3)cc2s1 [Example 54]")
"> 6.70"
>>> test_value("COc1cccc2cc(C(=O)NC[C@](O)(c3cc4c(c(-c5ccc(F)cc5)n3)OC[C@@]4(N)C(F)(F)F)C(F)(F)F)cnc12 [Example 41]")
"< 6.70"
>>> test_value("COc1cc(C(=O)NC[C@](O)(c2cc3c(c(-c4ccc(F)cc4)n2)OC[C@@]3(N)C(F)(F)F)C(F)(F)F)nc2ccccc12 [Example 40]")
"< 6.70"
>>> test_value("N[C@@]1(C(F)(F)F)COc2c1cc([C@@](O)(CNC(=O)c1cc(OC3CC3)c3ncccc3c1)C1CC1)nc2-c1ccc(F)c(Cl)c1 [Example 30]")
"> 6.70"
>>> test_value("COc1cc(C(=O)NC[C@](C)(O)c2cc3c(c(-c4ccc(F)cc4)n2)OC[C@@]3(N)C(F)(F)F)cc2cccnc12 [Example 17]")
"> 6.70"
>>> test_value("Cn1cc2cc(C(=O)NC[C@](O)(c3cc4c(c(-c5ccc(F)cc5)n3)OC[C@@]4(N)C(F)(F)F)C3CC3)cc(OC3CC3)c2n1 [Example 66]")
"> 6.70"
>>> test_value("COCCOc1ccc(C(=O)NC[C@](O)(c2cc3c(c(-c4ccc(F)cc4)n2)OC[C@@]3(N)C(F)(F)F)C(F)(F)F)cc1OC [Example 37]")
"< 6.70"
>>> test_value("COc1cc(C(=O)NC[C@](O)(c2cc3c(c(-c4ccc(F)cc4)n2)OC[C@@]3(N)C(F)(F)F)C2CC2)cc2cccnc12 [Example 10]")
"> 6.70"
>>> test_value("COc1cc(C(=O)NC[C@](C)(O)c2cc3c(c(-c4ccc(F)cc4)n2)OC[C@@]3(NS(=O)(=O)C(C)(C)C)C(F)(F)F)cc2cccnc12 [Example 46]")
"< 6.70"
>>> test_value("COc1cc(C(=O)NC[C@@](O)(c2cc3c(c(-c4ccc(F)cc4)n2)OC[C@@]3(N)C(F)(F)F)C(F)(F)F)ccc1OC1CC1 [Example 2]")
"< 6.70"
>>> test_value("C[C@](O)(CNC(=O)c1ccc(OC2CC2)c(OC2CC2)c1)c1cc2c(c(-c3ccc(F)cc3)n1)OC[C@@]2(N)C(F)(F)F [Example 20]")
"> 6.70"
